- Tested On: MLKL (Homo sapiens, UniProt Q8NB16)
- Sequence (Q8NB16 whole entry): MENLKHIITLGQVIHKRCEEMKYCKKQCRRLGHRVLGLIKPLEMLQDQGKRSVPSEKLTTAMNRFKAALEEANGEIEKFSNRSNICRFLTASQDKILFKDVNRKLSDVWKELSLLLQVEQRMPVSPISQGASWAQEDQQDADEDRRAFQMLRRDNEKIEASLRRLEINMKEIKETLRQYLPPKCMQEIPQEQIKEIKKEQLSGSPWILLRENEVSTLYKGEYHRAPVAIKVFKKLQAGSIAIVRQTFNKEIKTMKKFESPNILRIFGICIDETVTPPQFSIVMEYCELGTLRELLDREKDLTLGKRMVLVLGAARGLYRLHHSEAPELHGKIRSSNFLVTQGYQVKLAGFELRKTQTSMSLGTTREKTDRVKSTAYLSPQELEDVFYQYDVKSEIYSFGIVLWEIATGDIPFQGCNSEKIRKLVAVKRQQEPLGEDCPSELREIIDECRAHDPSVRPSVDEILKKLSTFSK
- Experiment Notes: MLKL degradation assay in HepG2 cell line (western blot)
- Type: cell-based
- Set-up: endogenous in cells; host or cells: HepG2 or HaCaT
- Experimental Context: compound 1 μM; cell line not given
Items are presented alongside their recorded Degradation assay (Degradation %) 1 μM.
Reported Metric: Degradation assay (Degradation %) 1 μM

• Nc1ncc(-c2cnn(C3CCN(CC4CCN(C(=O)C5CCN(C6=CC(=O)N(C7CCC(=O)NC7=O)C6=O)CC5)CC4)CC3)c2)nc1C(=O)O[C@@H](C(=O)Nc1ccc(F)cc1)c1ccccc1 (stereo partly shown) = 89.24
• Nc1ncc(-c2cnn(C3CCN(CC4CCN(C(=O)CC5CCN(c6cccc7c6C(=O)N(C6CCC(=O)NC6=O)C7=O)CC5)CC4)CC3)c2)nc1C(=O)O[C@@H](C(=O)Nc1ccc(F)cc1)c1ccccc1 (stereo partly shown) = 70
• Nc1ncc(-c2cnn(C3CCN(CCOCCNC(=O)C4CCN(c5ccc6c(c5)C(=O)N(C5CCC(=O)NC5=O)C6=O)CC4)CC3)c2)nc1C(=O)O[C@@H](C(=O)Nc1ccc(F)cc1)c1ccccc1 (stereo partly shown) = 32.68
• Nc1ncc(-c2cnn(C3CCN(C(=O)CC4CCN(C(=O)COc5cccc6c5C(=O)N(C5CCC(=O)NC5=O)C6=O)CC4)CC3)c2)nc1C(=O)O[C@@H](C(=O)Nc1ccc(F)cc1)c1ccccc1 (stereo partly shown) = 46.82
• Nc1ncc(-c2cnn(C3CCN(CCCN4CCN(C(=O)C5CN(C6=CC(=O)N(C7CCC(=O)NC7=O)C6=O)C5)CC4)CC3)c2)nc1C(=O)O[C@@H](C(=O)Nc1ccc(F)cc1)c1ccccc1 (stereo partly shown) = 73.88
• Nc1ncc(-c2cn(C3CCN(CC4CCN(C(=O)CNc5cccc6c5C(=O)N(C5CCC(=O)NC5=O)C6=O)CC4)CC3)nn2)nc1C(=O)OC(C(=O)Nc1ccc(F)cc1)c1ccccc1 (stereo not shown) = 49.26
• Nc1ncc(-c2cnn(C3CCN(C[C@H]4CC[C@H](CNC(=O)C5CCN(c6cccc7c6C(=O)N(C6CCC(=O)NC6=O)C7=O)CC5)CC4)CC3)c2)nc1C(=O)O[C@@H](C(=O)Nc1ccc(F)cc1)c1ccccc1 (stereo partly shown) = 93.71
• Nc1ncc(-c2ccc(N3CCN(CCOCCOCCNC(=O)C4CCN(c5ccc6c(c5)C(=O)N(C5CCC(=O)NC5=O)C6=O)CC4)CC3)nc2)nc1C(=O)OC(C(=O)Nc1ccc(F)cc1)c1ccccc1 (stereo not shown) = 13.9
• Nc1ncc(-c2cnn(C3CCN(C[C@H]4CC[C@H](CNC(=O)COc5cccc6c5C(=O)N(C5CCC(=O)NC5=O)C6=O)CC4)CC3)c2)nc1C(=O)O[C@@H](C(=O)Nc1ccc(F)cc1)c1ccccc1 (stereo partly shown) = 87.91
• Nc1ncc(-c2cnn(C3CCN(CCOCCNC(=O)C4CCN(c5cccc6c5C(=O)N(C5CCC(=O)NC5=O)C6=O)CC4)CC3)c2)nc1C(=O)O[C@@H](C(=O)Nc1ccc(F)cc1)c1ccccc1 (stereo partly shown) = 11

The values you see were collected from patent US20240252488A1.
